Details: in PEG-400, 328.15 K
Property: solubility (mole fraction)
One number for each entry.

Challenge: State its solubility (mole fraction) for this molecule: O=C1Nc2ccccc2C1=O
Response given: 0.132

* * *

Details: in ethylene glycol, 338.15 K
Property: solubility (mole fraction)
One number for each entry.

Challenge: State its solubility (mole fraction) for this compound: O=C1Nc2ccccc2C1=O
Response given: 0.0146

* * *

Details: in ethylene glycol, 308.15 K
Property: solubility (mole fraction)

Challenge: State its solubility (mole fraction) for this compound: O=C1Nc2ccccc2C1=O
Response given: 0.0092

* * *

Details: in isopropanol, 338.15 K
Property: solubility (mole fraction)
Answers are plain numbers.

Challenge: State its solubility (mole fraction) for this molecule: O=C1Nc2ccccc2C1=O
Response given: 0.0105
